Tested on: Mycobacterium tuberculosis
Experiment: Antitubercular activity against dormant stage Mycobacterium tuberculosis H37Ra measured after 12 days by XTT assay
Assay type: functional
Details: 288 h
IC50: recorded values

Sample records with IC50:
[
  {
    "molecule": "O=C1OC2(CCN(Cc3ccccc3)C2)CN1c1ccc(N2CCOCC2)c(F)c1 (stereo not given)",
    "IC50": "> 100 µg/mL"
  },
  {
    "molecule": "CC(C)NC(=S)NC[C@H]1CN(c2ccc(N3CC4(COC4)C3)c(F)c2)C(=O)O1",
    "IC50": "> 100 µg/mL"
  }
]

q: // map CC(=O)NC[C@H]1CN(c2ccc(C3=C[C@H]4CC[C@@H](C3)N4C(=O)OC(C)(C)C)c(F)c2)C(=O)O1 to recorded IC50 (system: Mycobacterium tuberculosis)
a: 10.8 µg/mL

q: Return IC50 measured with Mycobacterium tuberculosis given this molecule: O=C1O[C@@H](CNC(=S)Nc2ccc(Cl)cc2)CN1c1ccc(N2CC3(COC3)C2)c(F)c1
a: > 100 µg/mL

q: Find IC50 (Mycobacterium tuberculosis) for the entry CC(C)(C)NC(=S)NC[C@H]1CN(c2ccc(N3CC4(COC4)C3)c(F)c2)C(=O)O1
a: > 100 µg/mL

====

Test system: Pseudomonas aeruginosa
Experiment: Antibacterial activity against Pseudomonas aeruginosa NCIM 2036 at 10 ug/ml measured after 8 hrs by spectrophotometric method
Type: functional
Conditions: NCIM 2036, 8 h
Would you please tag the item 1 when its inhibition at 10 µg/mL is 50% or above, and -1 when it is below?

q: Does the reported inhibition at 10 µg/mL for O=C1OC2(CCNC2)CN1c1ccc(N2CCOCC2)c(F)c1 (stereo unspecified) fall at or above the 50% mark?
a: -1

q: Check this molecule for inhibition at 10 µg/mL at or above 50%: COCC(=O)NC[C@H]1CN(c2ccc(N3CC4(COC4)C3)c(F)c2)C(=O)O1
a: -1

q: Is the recorded value of inhibition at 10 µg/mL equal to or greater than 50% for this molecule? CC(C)(C)NC(=S)NC[C@H]1CN(c2ccc(N3CC4(COC4)C3)c(F)c2)C(=O)O1
a: -1

q: Determine whether measured inhibition at 10 µg/mL meets or exceeds 50% for CC(=O)NC[C@H]1CN(c2ccc(C3=C[C@H]4CC[C@@H](C3)N4C(=O)OC(C)(C)C)c(F)c2)C(=O)O1
a: 1

q: Test whether the molecule O=C1O[C@@H](CNC(=O)C23CC4CC(CC(C4)C2)C3)CN1c1ccc(N2CC3(COC3)C2)c(F)c1 records inhibition at 10 µg/mL of 50% or higher.
a: -1

q: // inclusive: inhibition at 10 µg/mL at least 50%? input: OC1(CNc2ccc(N3CCOCC3)c(F)c2)CCN(Cc2ccccc2)C1 (stereo unspecified)
a: -1

q: Threshold query (inhibition at 10 µg/mL >= 50%) on COc1ccc(NC(=S)NC[C@H]2CN(c3ccc(N4CC5(COC5)C4)c(F)c3)C(=O)O2)cc1
a: -1

q: Please indicate if the recorded inhibition at 10 µg/mL for O=C(NC[C@H]1CN(c2ccc(N3CC4(COC4)C3)c(F)c2)C(=O)O1)c1ccc(C(F)(F)F)cc1 meets or exceeds 50%.
a: 1

q: Decide: is the reported value of inhibition at 10 µg/mL for O=C1O[C@@H](CNS(=O)(=O)c2cc(Cl)cc(Cl)c2)CN1c1ccc(N2CC3(COC3)C2)c(F)c1 equal to or greater than 50%?
a: 1

====

Test system: Escherichia coli
Assay: Antibacterial activity against Escherichia coli NCIM 2688 at 30 ug/ml measured after 8 hrs by spectrophotometric method
Assay type: functional
Details: NCIM 2688, 8 h
Label rule, in plain words: inhibition at 30 µg/mL of 60% and up is true, under 60% is false.

Look over these answered cases.
[
  {
    "mol.smiles": "O=C1O[C@@H](CNS(=O)(=O)c2cc(Cl)cc(Cl)c2)CN1c1ccc(N2CC3(COC3)C2)c(F)c1",
    "label.class": "false"
  },
  {
    "mol.smiles": "O=C1O[C@@H](CNS(=O)(=O)c2cccc(C(F)(F)F)c2)CN1c1ccc(N2CC3(COC3)C2)c(F)c1",
    "label.class": "true"
  },
  {
    "mol.smiles": "N#Cc1ccc(NC(=S)NC[C@H]2CN(c3ccc(N4CC5(COC5)C4)c(F)c3)C(=O)O2)cc1",
    "label.class": "true"
  }
]

Consider the record given below.
q: # bool: inhibition at 30 µg/mL of O=C1O[C@@H](CNS(=O)(=O)c2cc([N+](=O)[O-])ccc2Cl)CN1c1ccc(N2CC3(COC3)C2)c(F)c1 >= 60%
a: false

====

Test system: Mycobacterium tuberculosis
Assay: Antitubercular activity against dormant stage Mycobacterium tuberculosis H37Ra measured after 12 days by XTT assay
Format: functional
Settings: 288 h
MIC reference

Solved cases below.
[
  {
    "compound": "O=C1O[C@@H](CNC(=S)Nc2ccc([N+](=O)[O-])cc2)CN1c1ccc(N2CC3(COC3)C2)c(F)c1",
    "MIC": "> 100 µg/mL"
  },
  {
    "compound": "O=C1O[C@@H](CNS(=O)(=O)c2cc([N+](=O)[O-])ccc2Cl)CN1c1ccc(N2CC3(COC3)C2)c(F)c1",
    "MIC": "> 100 µg/mL"
  },
  {
    "compound": "O=C1O[C@@H](CNC(=S)Nc2cccc(C(F)(F)F)c2)CN1c1ccc(N2CC3(COC3)C2)c(F)c1",
    "MIC": "> 100 µg/mL"
  },
  {
    "compound": "CC(=O)NC[C@H]1CN(c2ccc(N3CCOCC3)c(F)c2)C(=O)O1",
    "MIC": "1.25 µg/mL"
  }
]

q: I am curious: what MIC value has been reported for CC(=O)N1CCC2(C1)CN(c1ccc(N3CCOCC3)c(F)c1)C(=O)O2 (stereo not given) ?
a: > 100 µg/mL

====

Test system: Bacillus subtilis
Assay: Antibacterial activity against Bacillus subtilis NCIM 2010 at 3 ug/ml measured after 12 hrs by spectrophotometric method
Type: functional
Details: NCIM 2010, 12 h
Listed here are compounds together with their documented inhibition at 3 µg/mL.
Phrase the answer as number then unit, nothing more needed.

q: Report inhibition at 3 µg/mL for CC(C)NC(=S)NC[C@H]1CN(c2ccc(N3CC4(COC4)C3)c(F)c2)C(=O)O1 tested on Bacillus subtilis.
a: 82%

q: Provide value of inhibition at 3 µg/mL for this record tested with Bacillus subtilis: N#Cc1ccc(NC(=S)NC[C@H]2CN(c3ccc(N4CC5(COC5)C4)c(F)c3)C(=O)O2)cc1
a: 81.3%

q: Request body: readout inhibition at 3 µg/mL, system Bacillus subtilis, query O=C1O[C@@H](CNC(=S)Nc2ccccc2F)CN1c1ccc(N2CC3(COC3)C2)c(F)c1 . Return the value.
a: 81%

====

Tested on: Mycobacterium tuberculosis
Assay: Antitubercular activity against dormant stage Mycobacterium tuberculosis H37Ra measured after 12 days by XTT assay
Format: functional
Settings: 288 h
endpoint.name: MIC

Record excerpt, results attached:
[
  {
    "mol.smiles": "CC(=O)NC[C@H]1CN(c2ccc(N3CC4(COC4)C3)c(F)c2)C(=O)O1",
    "endpoint.name": "MIC",
    "value.measured": "3.1 µg/mL"
  },
  {
    "mol.smiles": "O=C1O[C@@H](CNC(=S)Nc2ccc(Cl)cc2)CN1c1ccc(N2CC3(COC3)C2)c(F)c1",
    "endpoint.name": "MIC",
    "value.measured": "> 100 µg/mL"
  }
]

Let us examine a further case.
q: What value of MIC has been recorded for this entry: O=C1O[C@@H](CNS(=O)(=O)c2cc(Cl)cc(Cl)c2)CN1c1ccc(N2CC3(COC3)C2)c(F)c1
a: > 100 µg/mL
